# STUDY TARGET: GRIP2_3, Q9C0E4
# Sequence (Q9C0E4 238-339): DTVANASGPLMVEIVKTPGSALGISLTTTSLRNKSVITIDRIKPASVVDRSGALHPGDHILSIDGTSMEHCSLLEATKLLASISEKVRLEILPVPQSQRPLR
# PROTOCOL DETAILS: holdup assay
# Design: key: below the threshold = too weak to quantify, mostly under pKd 3.1 to 4
# PARTICULARS: plain residues with an end cap or a label only (N-terminal biotin on a linker: ttds)
REPORTED PROPERTY: pKd

INSERT INTO measurements (binder, reported_property, endpoint_value) VALUES
  ('SRSRRRETAL [HPV33-E6, P06427]', 'pKd', 'below the threshold'),
  ('PFRSRSPSEV [GPR6, P46095]', 'pKd', 'below the threshold'),
  ('GARVSKETPL [MAPK12, P53778]', 'pKd', 'below the threshold'),
  ('SHSSKGETAV [FZD7, O75084]', 'pKd', 3.55);
